The origin of these recorded values is ChEMBL document CHEMBL2057182.

# System: MCF7
# protocol summary: Cytotoxicity against human MCF7 cells after 48 hrs by MTT assay
# Assay type: functional, cell-based
# condition summary: MCF7, 48 h
Provide the recorded IC50 for the entries that follow.
The reply should contain only the number, in µM.

Lab note: compound C=CC1C(=C)C(=O)Oc2cc(OC)cc(OC)c21 (stereo unspecified) tested on MCF7; recorded IC50 was 6.2

Lab note: compound C=C1C(=O)Oc2ccc3ccccc3c2C1CCCC (stereo unspecified) tested on MCF7; recorded IC50 was 2.75

Lab note: compound C=C1C(=O)Oc2ccc3ccc(O)cc3c2C1CCCC (stereo unspecified) tested on MCF7; recorded IC50 was 1.88

Lab note: compound C=C1C(=O)Oc2ccc3ccccc3c2C1C (stereo unspecified) tested on MCF7; recorded IC50 was 5.17

Lab note: compound C=C1C(=O)Oc2cc(OC)cc(OC)c2C1CCCC (stereo unspecified) tested on MCF7; recorded IC50 was 3.3

Lab note: compound C=C1C(=O)Oc2cc3c(cc2C1C)OCO3 (stereo unspecified) tested on MCF7; recorded IC50 was 40.9
